Could you please report measured Rate of inhibition for the items listed next?
- Test system: A549
- measurement description: In vitro rate of inhibition of A-549 tumor cell growth at 10E-4 mol/L
- Type: functional, Homo sapiens
- condition description: at 100 µM
The reply should contain only the number, in %.

Q: What value of Rate of inhibition has been reported for the following compound? `CC1=NN(C(=O)Nc2cc(Cl)cc(Cl)c2)C(C)=NN1C(=O)Nc1cc(Cl)cc(Cl)c1`
Ans: 42

Q: What value of Rate of inhibition has been reported for the following compound? CC1=NNC(C)N=N1 (configuration not stated)
Ans: 67.7

Q: What value of Rate of inhibition has been reported for the following compound? `COc1ccc(NC(=O)N2N=C(C)N(C(=O)Nc3ccc(OC)cc3)N=C2C)cc1`
Ans: 24.2

Q: What value of Rate of inhibition has been reported for the following compound? CCCC1NN(C(C)=O)C(CCC)NN1C(C)=O (configuration not stated)
Ans: 59.8

Q: What value of Rate of inhibition has been reported for the following compound? Clc1ccccc1-c1nnc(-c2ccccc2Cl)nn1 [CLOFENTEZINE]
Ans: 0

Q: What value of Rate of inhibition has been reported for the following compound? `CC1=NN(C(=O)Nc2ccccc2C)C(C)=NN1C(=O)Nc1ccccc1C`
Ans: 80

Q: What value of Rate of inhibition has been reported for the following compound? `CC1=NN(C(=O)Nc2cccc3ccccc23)C(C)=NN1C(=O)Nc1cccc2ccccc12`
Ans: 56.6

Q: What value of Rate of inhibition has been reported for the following compound? `Clc1ccc(-c2nnc(-c3ccc(Cl)cc3)nn2)cc1`
Ans: 0

Q: What value of Rate of inhibition has been reported for the following compound? `c1ccc(Cc2nnc(Cc3ccccc3)nn2)cc1`
Ans: 66.8

Q: What value of Rate of inhibition has been reported for the following compound? `Clc1ccc(Cc2nnc(Cc3ccc(Cl)cc3)nn2)cc1`
Ans: 65.8

Q: What value of Rate of inhibition has been reported for the following compound? CC1=NN(C(=O)Oc2ccccc2)C(C)N=N1 (configuration not stated)
Ans: 32.1

Q: What value of Rate of inhibition has been reported for the following compound? `CCCC1=NN(C(=O)Nc2ccccc2)C(CCC)=NN1C(=O)Nc1ccccc1`
Ans: 56.6

====

Could you please report measured Rate of inhibition for the items listed next?
- Tested on: A549
- measurement description: In vitro rate of inhibition of A-549 tumor cell growth at 10E-4 mol/L
- Assay type: functional, Homo sapiens
- condition description: at 100 µM
The reply should contain only the number, in %.

Q: What value of Rate of inhibition has been reported for the following compound? `Clc1cccc(-c2nnc(-c3cccc(Cl)c3)nn2)c1`
Ans: 0

Q: What value of Rate of inhibition has been reported for the following compound? `CC1=NN(C(=O)Nc2cccc(Cl)c2)C(C)=NN1C(=O)Nc1cccc(Cl)c1`
Ans: 21.2

Q: What value of Rate of inhibition has been reported for the following compound? `CC1=NN(C(=O)Nc2cccc(C(F)(F)F)c2)C(C)=NN1C(=O)Nc1cccc(C(F)(F)F)c1`
Ans: 39.3

Q: What value of Rate of inhibition has been reported for the following compound? `CCC1=NN(C(=O)Nc2cccc(C)c2)C(CC)=NN1C(=O)Nc1cccc(C)c1`
Ans: 90.4

Q: What value of Rate of inhibition has been reported for the following compound? `Cc1cccnc1-c1nnc(-c2ncccc2C)nn1`
Ans: 0

Q: What value of Rate of inhibition has been reported for the following compound? `CC(C)C(=O)N1N=C(c2ccccc2)NN=C1c1ccccc1`
Ans: 83.8

Q: What value of Rate of inhibition has been reported for the following compound? `CCCOC(=O)N1C(c2ccccc2)=NN=C(c2ccccc2)N1C(=O)OCCC`
Ans: 23.4

Q: What value of Rate of inhibition has been reported for the following compound? `FC(F)(F)c1ccc(-c2nnc(-c3ccc(C(F)(F)F)cc3)nn2)cc1`
Ans: 40.2

Q: What value of Rate of inhibition has been reported for the following compound? `COc1ccccc1NC(=O)N1N=C(C)N(C(=O)Nc2ccccc2OC)N=C1C`
Ans: 80

Q: What value of Rate of inhibition has been reported for the following compound? `CC1=NN(C(=O)Nc2cc(C)cc(C)c2)C(C)=NN1C(=O)Nc1cc(C)cc(C)c1`
Ans: 86.4

Q: What value of Rate of inhibition has been reported for the following compound? `CCCC1=NN(C(=O)Nc2cccc(C)c2)C(CCC)=NN1C(=O)Nc1cccc(C)c1`
Ans: 93.3

Q: What value of Rate of inhibition has been reported for the following compound? `COc1ccccc1C(=O)N1N=C(c2ccccc2)NN=C1c1ccccc1`
Ans: 90.9

Q: What value of Rate of inhibition has been reported for the following compound? CC1=NN(C(=O)OCCC(C)C)C(C)N=N1 (stereo unspecified)
Ans: 0

Q: What value of Rate of inhibition has been reported for the following compound? `COC(=O)N1C(c2ccccc2)=NN=C(c2ccccc2)N1C(=O)OC`
Ans: 35.5

Q: What value of Rate of inhibition has been reported for the following compound? `COc1cc(NC(=O)N2N=C(C)N(C(=O)Nc3cc(OC)cc(OC)c3)N=C2C)cc(OC)c1`
Ans: 87.5

Q: What value of Rate of inhibition has been reported for the following compound? `CC1=NN(C(=O)Nc2cccc(N(C)C)c2)C(C)=NN1C(=O)Nc1cccc(N(C)C)c1`
Ans: 93.2

Q: What value of Rate of inhibition has been reported for the following compound? `CC1=NN(C(=O)Nc2ccccc2)C(C)=NN1C(=O)Nc1ccccc1`
Ans: 76.5

Q: What value of Rate of inhibition has been reported for the following compound? CCCC1=NN(C(=O)OCC)C(CCC)N=N1 (stereo unspecified)
Ans: 12.5

Q: What value of Rate of inhibition has been reported for the following compound? CCCCCOC(=O)N1N=C(CCC)N=NC1CCC (stereo unspecified)
Ans: 0

Q: What value of Rate of inhibition has been reported for the following compound? `CCCC1=NN(C(=O)Nc2cccc(Cl)c2)C(CCC)=NN1C(=O)Nc1cccc(Cl)c1`
Ans: 91.3

Q: What value of Rate of inhibition has been reported for the following compound? `CCOC(=O)c1ccc(NC(=O)N2N=C(C)N(C(=O)Nc3ccc(C(=O)OCC)cc3)N=C2C)cc1`
Ans: 27.3
